Recorded values, source PubChem BioAssay (EPA / NIEHS).

Read-out: ABC Transporter (ABCC2), ABCC2 (gene 1244)
TEST PROTOCOL: LTEA_HepaRG_ABCC2: Life Technologies and Expression Analysis (LTEA) Assay for ABC Transporter (ABCC2) using HepaRG (AID 2283464)
STATED CONDITIONS: mRNA level, 48 h; actives raise or lower the signal
Active and inactive are the calls of the source. How the source made its calls: active means hit-call score of the fitted dose curve at least 0.9, where 1 is the maximum; inactive means score below 0.9.
The categories you may choose from are active, inactive

Here's what some known entries look like.
{"COMPOUND": "N#Cc1c(Cl)c(Cl)c(Cl)c(C#N)c1Cl", "LABEL CLASS": "inactive"}
{"COMPOUND": "C[C@H]1[C@H](c2ccc(Cl)cc2)SC(=O)N1C(=O)NC1CCCCC1", "LABEL CLASS": "inactive"}
{"COMPOUND": "O=C(Nc1ccccc1)Nc1cnns1", "LABEL CLASS": "active"}
{"COMPOUND": "CCCN(CCOc1c(Cl)cc(Cl)cc1Cl)C(=O)n1ccnc1", "LABEL CLASS": "active"}
{"COMPOUND": "O=[N+]([O-])c1c(Cl)c(Cl)c(Cl)c(Cl)c1Cl", "LABEL CLASS": "inactive"}
{"COMPOUND": "O=C(O)CCCOc1ccc(Cl)cc1Cl", "LABEL CLASS": "inactive"}
{"COMPOUND": "CC(C)N(C(=O)COc1nnc(C(F)(F)F)s1)c1ccc(F)cc1", "LABEL CLASS": "inactive"}
{"COMPOUND": "CCC(C)Nc1c([N+](=O)[O-])cc(C(C)(C)C)cc1[N+](=O)[O-] (configuration not stated)", "LABEL CLASS": "active"}

Ask | Identify the outcome logged in this assay for the compound shown: CCC(C)(NC(=O)c1cc(Cl)c(C)c(Cl)c1)C(=O)CCl (configuration not stated)
Reply | active

Ask | Identify the outcome logged in this assay for the compound shown: "CCN(CC)C(=O)SCc1ccc(Cl)cc1"
Reply | inactive

Ask | Identify the outcome logged in this assay for the compound shown: "Oc1cc(Cl)ccc1Oc1ccc(Cl)cc1Cl"
Reply | inactive

Ask | Identify the outcome logged in this assay for the compound shown: CC[C@H](C)[C@H]1O[C@]2(C=C[C@@H]1C)C[C@@H]1C[C@@H](C/C=C(\C)[C@@H](O[C@H]3C[C@H](OC)[C@@H](O[C@H]4C[C@H](OC)[C@@H](O)[C@H](C)O4)[C@H](C)O3)[C@@H](C)/C=C/C=C3\CO[C@@H]4[C@H](O)C(C)=C[C@@H](C(=O)O1)[C@]34O)O2 (tested in a mixture with another compound)
Reply | active

Ask | Identify the outcome logged in this assay for the compound shown: "CCc1ccc(C(=O)NN(C(=O)c2cc(C)cc(C)c2)C(C)(C)C)cc1"
Reply | inactive

Ask | Identify the outcome logged in this assay for the compound shown: "CNC(=O)/C=C(\C)OP(=O)(OC)OC"
Reply | inactive

Ask | Identify the outcome logged in this assay for the compound shown: "COc1nn(CSP(=S)(OC)OC)c(=O)s1"
Reply | inactive

Ask | Identify the outcome logged in this assay for the compound shown: CCOC1Oc2ccc(OS(C)(=O)=O)cc2C1(C)C (configuration not stated)
Reply | inactive

Ask | Identify the outcome logged in this assay for the compound shown: "COP(=O)(OC)OC=C(Cl)Cl"
Reply | inactive
